- TARGET UNDER TEST: UniProt:P07477
pKi: −log10 of the molar value.
REPORTED METRIC: pKi

[[record]]
smiles_entry = "CC(C)(Cc1ccc(C(=O)Oc2ccc(C(=N)N)cc2F)s1)C(=O)N[C@H]1CCC[C@@H](C(=O)O)C1"
reported_metric = "pKi"
experimental_value = 9.16

[[record]]
smiles_entry = "CC(C)(Cc1ccc(C(=O)Oc2ccc(C(=N)N)cc2F)s1)C(=O)N1CC[C@H](C(=O)O)C1"
reported_metric = "pKi"
experimental_value = 8.88

[[record]]
smiles_entry = "CC(C)(Cc1ccc(C(=O)Oc2ccc(C(=N)N)cc2F)s1)C(=O)Nc1cc(O)cc(C(=O)O)c1"
reported_metric = "pKi"
experimental_value = 9.74

[[record]]
smiles_entry = "CC(C)(Cc1ccc(C(=O)Oc2ccc(C(=N)N)cc2F)s1)C(=O)O.O=C(O)C(F)(F)F"
reported_metric = "pKi"
experimental_value = 8.89

[[record]]
smiles_entry = "CCC(CC)(Cc1ccc(C(=O)Oc2ccc(C(=N)N)cc2F)s1)C(=O)N1CC(C(=O)O)C1"
reported_metric = "pKi"
experimental_value = 8.54

[[record]]
smiles_entry = "CCC(CC)(Cc1ccc(C(=O)Oc2ccc(C(=N)N)cc2F)s1)C(=O)N[C@@H](Cc1nn[nH]n1)C(=O)O"
reported_metric = "pKi"
experimental_value = 8.47

